Origin of values: patent US20230348362A1

# Test name: Encapsulation efficiency of lipid nanoparticles, Quant-it Ribogreen RNA assay
# Format: physicochemical
# Experimental setup: LNP of lipid/DSPC/cholesterol/PEG-lipid 50:10:38.5:1.5 encapsulating hEPO mRNA
Measured property: Encapsulation Efficiency (%)
Quick note: give the figure in %, leave out the unit.

>>> print(df.to_string())
                                   molecule  test_result
0  CCCCCCCCC(CCCCCCCC)COC(=O)CCCCCN(CCO)CCN(CCCCCC(=O)OCC(CCCCCCCC)CCCCCCCC)Cc1ccc(C)cc1         84.0

Request the reported Encapsulation Efficiency associated with CCCCCCCCC(CCCCCC)COC(=O)CCCCCN(CCO)CCN(CCCCCC(=O)OCC(CCCCCC)CCCCCCCC)C1CCCC1 (centres unmarked) 95.8

Request the reported Encapsulation Efficiency associated with CCCCCCCCC(CCCCCC)CNC(=O)CCCCN(CCO)CCN(CCCCC(COC(=O)CCCCCCC)COC(=O)CCCCCCC)C1CCCC1 (centres unmarked) 91.70

Request the reported Encapsulation Efficiency associated with `CCCCCCCCCCCC(=O)OCCCCCN(CCN(CCO)CCCCCOC(=O)CC(CCCCCCCC)CCCCCCCC)C1CCCCCC1` 90.26

Request the reported Encapsulation Efficiency associated with `CCCCCCCCC(CCCCCCCC)COC(=O)CCCCCN(CCO)CCN(CCCCCC(=O)OCC(CCCCCCCC)CCCCCCCC)C1CCC(C)(C)CC1` 88.2

Request the reported Encapsulation Efficiency associated with `CCCCCCCC(=O)OCC(CCCCN(CCO)CCN(CCCCC(COC(=O)CCCCCCC)COC(=O)CCCCCCC)C1CCCCC1)COC(=O)CCCCCCC` 88.11

Request the reported Encapsulation Efficiency associated with CCCCCCCCC(CCCCCC)CNC(=O)CCCCCCN(CCO)CCN(CCCCC(COC(=O)CCCCCCC)COC(=O)CCCCCCC)C1CCCCCC1 (centres unmarked) 92.47

Request the reported Encapsulation Efficiency associated with CCCCCCCCC(CCCCCC)CNC(=O)CCCCCN(CCCCN(CCO)CCCCC(COC(=O)CCCCCCC)COC(=O)CCCCCCC)C1CCCCC1 (centres unmarked) 91.45

Request the reported Encapsulation Efficiency associated with `C/C=C/CN(CCCCCC(=O)OCC(CCCCCCCC)CCCCCCCC)CCN(CCO)CCCCCC(=O)OCC(CCCCCCCC)CCCCCCCC` 88.2

Request the reported Encapsulation Efficiency associated with CCCCCCCCC(CCCCCC)COC(=O)CCCCCN(CCO)CCN(CCCCC(COC(=O)CCCCCCC)COC(=O)CCCCCCC)C1CCC1 (centres unmarked) 87.16

Request the reported Encapsulation Efficiency associated with CCCCCCCCC(CCCCCC)COC(=O)CCCCCN(CCCCN(CCO)CCCCC(COC(=O)CCCCCCC)COC(=O)CCCCCCC)C1CCCC1 (centres unmarked) 93.35
